Ref: ChEMBL document CHEMBL1649411

Assay: Cytotoxicity against HLF after 72 hrs by MTT assay
Assay type: cell-based
Settings: human, HLF cells
Label TRUE when GI50 at 72 h is strictly below 10 µM; otherwise label FALSE.

compound="C[C@H]1C=C(CCCCCCCC(O)CCCC[C@H](O)COCCOC[C@@H](O)CCCc2ccc(-c3ccccc3)cc2)C(=O)O1 (stereo partly drawn)" label=FALSE
compound="COc1ccc(CCC[C@H](O)COCCOC[C@@H](O)CCCCC(O)CCCCCCCC2=C[C@H](C)OC2=O)cc1 (stereo partly drawn)" label=FALSE
compound="C[C@H]1C=C(CCCCCCCC(O)CCCC[C@H](O)COCCOC[C@@H](O)CCCc2ccccc2)C(=O)O1 (stereo partly drawn)" label=TRUE
compound="C[C@H]1C=C(CCCCCCCC(O)CCCC[C@H](O)COCCOC[C@@H](O)CCCCC2CCCCC2)C(=O)O1 (stereo partly drawn)" label=TRUE
compound="C[C@H]1C=C(CCCCCCCC(O)CCCC[C@H](O)COCCOC[C@@H](O)CCCc2cccc(O)c2)C(=O)O1 (stereo partly drawn)" label=FALSE

Request: Does the reported GI50 at 72 h of the following compound sit strictly below 10 µM? CCCCCCCCCC[C@H](O)COCCOC[C@@H](O)CCCCCCCCCCCCC1=C[C@H](C)OC1=O
Response: FALSE

Request: Bench note: check whether CCCCCC[C@H](O)COCCOC[C@@H](O)CCCCC(O)CCCCCCCC1=C[C@H](C)OC1=O (stereo partly drawn) shows GI50 at 72 h below 10 µM
Response: FALSE
